Source of measurements: ChEMBL document CHEMBL3098058

Each entry below carries its reported permeability.
- test protocol: Permeability of the compound at donor and acceptor pH 7.4 by PAMPA
- Format: ADME
Reply with a number, then the unit it belongs to.

COc1cccc(OC)c1-c1nc(C(=O)N[C@@H](CC(C)C)C(=O)O)cn1-c1cccc2ccccc12
12 ×10⁻⁶ cm/s

Now consider the entry below.
IN: Find the recorded permeability belonging to `COc1cccc(OC)c1-c1nc(C(=O)N[C@@H](CC(C)C)C(=O)O)cn1-c1ccnc2cc(Cl)ccc12` and report it.
OUT: 6 ×10⁻⁶ cm/s

----------
- assayed target: Delta-type opioid receptor (Homo sapiens, UniProt P41143)
- Sequence (P41143 whole entry): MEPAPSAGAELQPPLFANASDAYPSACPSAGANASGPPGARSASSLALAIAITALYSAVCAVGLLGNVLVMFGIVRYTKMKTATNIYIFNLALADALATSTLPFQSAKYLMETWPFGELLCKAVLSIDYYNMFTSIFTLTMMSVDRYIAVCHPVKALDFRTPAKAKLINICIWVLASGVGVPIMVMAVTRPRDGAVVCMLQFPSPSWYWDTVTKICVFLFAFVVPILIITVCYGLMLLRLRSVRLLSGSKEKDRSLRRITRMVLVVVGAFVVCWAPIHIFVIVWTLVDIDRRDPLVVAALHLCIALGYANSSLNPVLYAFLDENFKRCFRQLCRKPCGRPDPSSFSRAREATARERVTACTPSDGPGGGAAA
- test protocol: Inhibition of DOR (unknown origin)
property label: pKi
# log scale: pKi equals minus log10 of the concentration in mol/L

IN: Find the recorded pKi belonging to `COc1cccc(OC)c1-c1cc(C(=O)N[C@@H](CC(C)C)C(=O)O)nn1-c1ccnc2cc(Cl)ccc12` and report it.
OUT: 5.28

----------
- assayed target: Neurotensin receptor type 2 (Homo sapiens)
- Sequence (O95665 whole entry): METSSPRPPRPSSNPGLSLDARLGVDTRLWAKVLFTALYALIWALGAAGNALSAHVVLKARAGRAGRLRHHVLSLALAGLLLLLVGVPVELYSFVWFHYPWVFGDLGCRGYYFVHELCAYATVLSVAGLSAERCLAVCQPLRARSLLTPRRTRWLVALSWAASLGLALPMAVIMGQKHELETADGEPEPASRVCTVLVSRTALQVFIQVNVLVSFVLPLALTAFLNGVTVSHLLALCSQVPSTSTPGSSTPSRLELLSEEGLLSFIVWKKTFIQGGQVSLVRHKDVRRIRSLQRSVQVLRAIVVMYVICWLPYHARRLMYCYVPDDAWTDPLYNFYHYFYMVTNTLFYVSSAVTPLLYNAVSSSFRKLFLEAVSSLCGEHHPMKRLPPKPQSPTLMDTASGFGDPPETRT
- test protocol: Agonist activity at NTR2 in human U2OS cells after 1 hr by beta-arrestin GFP reporter gene assay
property label: EC50

COc1cccc(OC)c1-c1cc(C(=O)N[C@@H](CC(C)C)C(=O)O)nn1-c1ccnc2cc(Cl)ccc12
> 80 µM

Now consider the entry below.
IN: Find the recorded EC50 belonging to `COc1cccc(OC)c1-c1nc(C(=O)N[C@@H](CC(C)C)C(=O)O)cn1-c1ccnc2cc(Cl)ccc12` and report it.
OUT: > 80 µM

----------
- test protocol: Cytotoxicity in human Fa2N-4 cells after 24 hrs
- Assay type: cell-based
- recorded conditions: fa2n-4, 24 h, read-out: LC50 (the source's name)
property label: CC50

Solved cases (2 shown):
COc1cccc(OC)c1-c1nc(C(=O)N[C@@H](CC(C)C)C(=O)O)cn1-c1cccc2ccccc12
> 50 µM
COc1cccc(OC)c1-c1nc(C(=O)N[C@@H](CC(C)C)C(=O)O)cn1-c1ccnc2cc(Cl)ccc12
> 50 µM

Now consider the entry below.
IN: Find the recorded CC50 belonging to `COc1cccc(OC)c1-c1cc(C(=O)N[C@@H](CC(C)C)C(=O)O)nn1-c1ccnc2cc(Cl)ccc12` and report it.
OUT: > 50 µM

----------
- test protocol: Metabolic stability in human plasma assessed as compound remaining at 3 hrs
- Format: ADME, cell-free
- recorded conditions: read-out: Stability
property label: remaining at 3 h (%)
Report as a plain number; the unit % is understood.

Solved cases (2 shown):
COc1cccc(OC)c1-c1nc(C(=O)N[C@@H](CC(C)C)C(=O)O)cn1-c1cccc2ccccc12
76
COc1cccc(OC)c1-c1nc(C(=O)N[C@@H](CC(C)C)C(=O)O)cn1-c1ccnc2cc(Cl)ccc12
100

Now consider the entry below.
IN: Find the recorded remaining at 3 h belonging to `COc1cccc(OC)c1-c1cc(C(=O)N[C@@H](CC(C)C)C(=O)O)nn1-c1ccnc2cc(Cl)ccc12` and report it.
OUT: 88.9

----------
- assayed target: Neurotensin receptor type 1 (Homo sapiens)
- Sequence (P30989 whole entry): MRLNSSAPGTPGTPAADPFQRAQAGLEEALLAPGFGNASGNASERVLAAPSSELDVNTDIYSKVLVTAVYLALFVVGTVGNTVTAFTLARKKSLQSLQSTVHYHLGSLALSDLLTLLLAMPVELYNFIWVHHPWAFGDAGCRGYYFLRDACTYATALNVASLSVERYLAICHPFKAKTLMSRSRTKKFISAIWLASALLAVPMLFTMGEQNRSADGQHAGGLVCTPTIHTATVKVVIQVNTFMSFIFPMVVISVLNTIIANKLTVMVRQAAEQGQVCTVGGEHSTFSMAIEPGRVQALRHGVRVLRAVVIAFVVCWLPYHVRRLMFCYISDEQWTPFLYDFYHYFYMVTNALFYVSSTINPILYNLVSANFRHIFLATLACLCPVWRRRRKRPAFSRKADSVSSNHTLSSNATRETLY
- test protocol: Agonist activity at NTR1 in human U2OS cells after 1 hr by beta-arrestin GFP reporter gene assay
- Type: cell-based
property label: EC50

Solved cases (2 shown):
CC(C)C[C@H](NC(=O)c1cn(-c2ccnc3ccccc23)c(-c2ccccc2)n1)C(=O)O
> 80 µM
CC(C)C[C@H](NC(=O)c1cn(-c2ccncc2)c(-c2ccccc2)n1)C(=O)O
> 80 µM

IN: Find the recorded EC50 belonging to `COc1ccccc1-c1nc(C(=O)N[C@@H](CC(C)C)C(=O)O)cn1-c1ccncc1` and report it.
OUT: > 80 µM
